FYI, the data here is from patent US7390812B2.

- Tgt: NA transporter (Rattus norvegicus, UniProt Q63380)
- Construct: synaptosomes were freshly isolated from rat brain regions; from tissue; host or cells: rat hypothalamus synaptosomes (P2 fraction)
- Sequence (Q63380 1-617): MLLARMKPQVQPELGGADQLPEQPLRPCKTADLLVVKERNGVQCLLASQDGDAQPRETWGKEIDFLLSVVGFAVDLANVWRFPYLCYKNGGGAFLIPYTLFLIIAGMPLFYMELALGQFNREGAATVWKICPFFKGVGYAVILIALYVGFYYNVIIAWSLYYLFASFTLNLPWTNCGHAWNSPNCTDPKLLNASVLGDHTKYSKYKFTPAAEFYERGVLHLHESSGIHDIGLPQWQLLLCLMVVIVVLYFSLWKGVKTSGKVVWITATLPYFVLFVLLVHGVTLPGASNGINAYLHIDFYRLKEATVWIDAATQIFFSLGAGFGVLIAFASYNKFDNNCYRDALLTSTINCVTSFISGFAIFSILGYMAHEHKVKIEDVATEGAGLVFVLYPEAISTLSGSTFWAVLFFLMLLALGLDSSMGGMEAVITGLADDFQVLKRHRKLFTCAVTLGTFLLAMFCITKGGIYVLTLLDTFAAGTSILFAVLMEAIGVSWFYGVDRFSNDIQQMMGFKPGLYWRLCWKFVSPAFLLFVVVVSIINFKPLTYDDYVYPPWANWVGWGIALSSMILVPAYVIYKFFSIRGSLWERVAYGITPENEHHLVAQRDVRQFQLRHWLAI
- Experimental details: Noradrenaline reuptake inhibition (NA uptake inhibition) in synaptosomes
- Assay type: biochemical
- Assay context: synaptosomes from hypothalamus of male rat brains
Property name: inhibition at 10 µM

Q) Query: inhibition at 10 µM; subject: CCC(O)(Cc1cccc(F)c1)C(C)CN1CCN(c2cccc(Cl)c2)CC1 (stereo not shown)
A) 50%

Q) Look at this molecule and give its reported inhibition at 10 µM. CN1CCN(CC2CCCCCC2(O)c2ccccc2)CC1 (stereo not shown)
A) 50%

Q) Quick one: inhibition at 10 µM of C=CC(O)(CC)C(C)CN1CCN(c2cccc(Cl)c2)CC1 (stereo not shown) ?
A) 53%

Q) Query: inhibition at 10 µM; subject: Cc1cccc(C2(O)CCCCC2CN2CCN(C)CC2)c1 (stereo not shown)
A) 44%

Q) Using the record for Cc1cc(C2(O)CCCCCC2CN2CCN(C)CC2)ccc1F (stereo not shown) , report its inhibition at 10 µM.
A) 66%

Q) Entry under review: CCC(O)(c1ccc(C)cc1)C(C)CN1CCN(c2cccc(Cl)c2)CC1 (stereo not shown) . Reported inhibition at 10 µM?
A) 41%

Q) Find the recorded inhibition at 10 µM belonging to CN1CCN(CC2CCCCCC2(O)c2ccc(Cl)cc2)CC1 (stereo not shown) and report it.
A) 70%

Q) Quick one: inhibition at 10 µM for CCC(O)(c1ccc(Cl)cc1)C(C)CN1CCN(c2cccc(Cl)c2)CC1 (stereo not shown) ?
A) 54%

Q) Request the reported inhibition at 10 µM associated with CCC(O)(c1ccccc1)C(C)CN1CCN(c2cccc(Cl)c2)CC1 (stereo not shown)
A) 61%

Q) Quick one: inhibition at 10 µM of CCC(O)(CCc1ccccc1)C(C)CN1CCN(C)CC1 (stereo not shown) ?
A) 88%

* * *

- Tested on: binding site 2 of the sodium channel
- Experimental details: Binding investigations at sodium channel binding site 2 (BTX binding)
- Assay context: 10 μM; rat cerebrocortex synaptosomes; [3H]-Batrachotoxinin A20 α-benzoate 10 nM; 37° C., 120 min
Property name: BTX binding at 10 μM [%] inhibition (%)
The reply should be a number in %, with the unit left off.

Q) Bench note: what BTX binding at 10 μM [%] inhibition did CCC(O)(c1ccc(C(C)(C)C)cc1)C(C)CN1CCN(C)CC1 (stereo not shown) show?
A) 68

Q) Quick one: BTX binding at 10 μM [%] inhibition of CN1CCN(CC2CCCCCC2(O)C2CCCC2)CC1 (stereo not shown) ?
A) 55

Q) Please report the recorded BTX binding at 10 μM [%] inhibition for CCC(O)(c1cccs1)C(C)CN1CCN(C)CC1 (stereo not shown) .
A) 47

Q) For the molecule shown here, CN1CCN(CC2CCCCC2(O)Cc2ccccc2)CC1 (stereo not shown) , give the reported BTX binding at 10 μM [%] inhibition.
A) 71
